- Test system: MCF10A
- assay-procedure: percent viability (nuclei count relative to siNT); higher = more viable cells
- experimental-setup: 20 nM; 72 h

>  <entry-sequence>
GCAGUGGCUCUGAAAUGAACUC [hsa-miR-5693]

>  <percent viability, %>
33.8

$$$$
>  <entry-sequence>
UACCUGGGAGACUGAGGUUGGA [hsa-miR-7851-3p]

>  <percent viability, %>
61.5

$$$$
>  <entry-sequence>
CAGUGAUCGUCUCUGCUGGC [hsa-miR-8079]

>  <percent viability, %>
41.6

$$$$
>  <entry-sequence>
CCUGUUGAAGUGUAAUCCCCA [hsa-miR-1267]

>  <percent viability, %>
114

$$$$
>  <entry-sequence>
GUGGGGCCAGGCGGUGG [hsa-miR-1227-5p]

>  <percent viability, %>
78.5

$$$$
>  <entry-sequence>
UUGGGACAUACUUAUGCUAAA [hsa-miR-1302]

>  <percent viability, %>
46.9

$$$$
>  <entry-sequence>
CAGAGAAUUGUUUAAUC [hsa-miR-3123]

>  <percent viability, %>
124

$$$$
>  <entry-sequence>
GACAAUUGUUGAUCUUGGGCCU [hsa-miR-7849-3p]

>  <percent viability, %>
74.7

$$$$
>  <entry-sequence>
UGCCUACUGAGCUGAUAUCAGU [hsa-miR-24-1-5p]

>  <percent viability, %>
49.2

$$$$
>  <entry-sequence>
CUCACUGAACAAUGAAUGCAA [hsa-miR-181b-3p]

>  <percent viability, %>
61.5

$$$$
>  <entry-sequence>
AAGGAGCUUACAAUCUAGCUGGG [hsa-miR-708-5p]

>  <percent viability, %>
27.9

$$$$
>  <entry-sequence>
UUAGCGGUGGACCGCCCUGCG [hsa-miR-4321]

>  <percent viability, %>
47

$$$$
>  <entry-sequence>
GAGUUCUACAGUCAGAC [hsa-miR-3168]

>  <percent viability, %>
22.3

$$$$
>  <entry-sequence>
AGGAAAUGAGGCUGGCUAGGAGC [hsa-miR-5093]

>  <percent viability, %>
25.8

$$$$
>  <entry-sequence>
UGUGUGUGUAGAGGAAGAAGGGA [hsa-miR-6867-5p]

>  <percent viability, %>
13.1

$$$$
>  <entry-sequence>
ACUCGGCGUGGCGUCGGUCGUG [hsa-miR-1307-3p]

>  <percent viability, %>
39.9

$$$$
>  <entry-sequence>
UUAGGCCGCAGAUCUGGGUGA [hsa-miR-1295a]

>  <percent viability, %>
33.2

$$$$
>  <entry-sequence>
AACCAUCGACCGUUGAGUGGAC [hsa-miR-181c-3p]

>  <percent viability, %>
71

$$$$
>  <entry-sequence>
UUUAAGAAAACACCAUGGAGAU [hsa-miR-3658]

>  <percent viability, %>
148

$$$$
>  <entry-sequence>
GUGAGACUUCUCUCCCUUCAG [hsa-miR-6864-3p]

>  <percent viability, %>
41.4

$$$$
>  <entry-sequence>
UCCUGCGCGUCCCAGAUGCCC [hsa-miR-1539]

>  <percent viability, %>
60.9

$$$$
>  <entry-sequence>
CCAAAUCUUGAUCAGAAGCCU [hsa-miR-4762-5p]

>  <percent viability, %>
106

$$$$
>  <entry-sequence>
UCUGGCUGUUGUGGUGUGCAA [hsa-miR-3064-5p]

>  <percent viability, %>
17.8

$$$$
>  <entry-sequence>
UGCUUCCUUUCUCAGCUG [hsa-miR-7162-5p]

>  <percent viability, %>
64.9

$$$$
>  <entry-sequence>
GAAAAUGAUGAGUAGUGACUGAUG [hsa-miR-3662]

>  <percent viability, %>
88.3

$$$$
>  <entry-sequence>
UGAGCUAAAUGUGUGCUGGGA [hsa-miR-610]

>  <percent viability, %>
131

$$$$
>  <entry-sequence>
AUUGAAACCUCUAAGAGUGGA [hsa-miR-510-3p]

>  <percent viability, %>
41.7

$$$$
>  <entry-sequence>
UGGGGAAGGCGUCAGUGUCGGG [hsa-miR-4725-3p]

>  <percent viability, %>
28.1

$$$$
>  <entry-sequence>
UAAUGAUUCAUCAGACUCAGAU [hsa-miR-580-5p]

>  <percent viability, %>
32.9

$$$$
>  <entry-sequence>
UGCAUCAGGCCAGAAGACAUGAG [hsa-miR-4711-5p]

>  <percent viability, %>
23.9

$$$$
>  <entry-sequence>
CAGGGCUGGCAGUGACAUGGGU [hsa-miR-4446-3p]

>  <percent viability, %>
25.9

$$$$
>  <entry-sequence>
AAUUUACUCUGCAAUCUUCUCC [hsa-miR-4699-3p]

>  <percent viability, %>
87.9

$$$$
>  <entry-sequence>
AAAAGUAAUUGUGGAUUUUGCU [hsa-miR-548ab]

>  <percent viability, %>
67.8

$$$$
>  <entry-sequence>
CAUCAGCACCCUAUGUCCUUUCU [hsa-miR-3617-3p]

>  <percent viability, %>
20

$$$$
>  <entry-sequence>
CGGGCGUGGUGGUGGGGGUG [hsa-miR-1268b]

>  <percent viability, %>
36.5

$$$$
>  <entry-sequence>
GAAAGAGAGCUGAGUGUG [hsa-miR-4311]

>  <percent viability, %>
26.3

$$$$
>  <entry-sequence>
UCGGGGAGUCUGGGGUCCGGAAU [hsa-miR-6889-5p]

>  <percent viability, %>
30.7

$$$$
>  <entry-sequence>
AACCCGUAGAUCCGAUCUUGUG [hsa-miR-99a-5p]

>  <percent viability, %>
48.2

$$$$
>  <entry-sequence>
CCACCGGGGGAUGAAUGUCAC [hsa-miR-181d-3p]

>  <percent viability, %>
40.6

$$$$
>  <entry-sequence>
CCUGUGGGCCACCUAGUCACCAA [hsa-miR-134-3p]

>  <percent viability, %>
44.8

$$$$
>  <entry-sequence>
CUGCGCAAGCUACUGCCUUGCU [hsa-let-7i-3p]

>  <percent viability, %>
110

$$$$
>  <entry-sequence>
UGAGGUAGUAAGUUGUAUUGUU [hsa-miR-98-5p]

>  <percent viability, %>
30

$$$$
>  <entry-sequence>
AGGAGAGUGGAUUCCAGGUGGU [hsa-miR-5192]

>  <percent viability, %>
24.2

$$$$
>  <entry-sequence>
CCCUGGGCCUCUGCUCCCCAG [hsa-miR-939-3p]

>  <percent viability, %>
31.6

$$$$
>  <entry-sequence>
UGAAGUUACAUCAUGGUCGCUU [hsa-miR-4670-3p]

>  <percent viability, %>
36.1

$$$$
>  <entry-sequence>
AUUCUGCAUUUUUAGCAAGUUC [hsa-miR-544a]

>  <percent viability, %>
26.6

$$$$
>  <entry-sequence>
ACUCGCAUCCUUCCCUUGGCAG [hsa-miR-6814-3p]

>  <percent viability, %>
118

$$$$
>  <entry-sequence>
ACCUGAGGUUGUGCAUUUCUAA [hsa-miR-544b]

>  <percent viability, %>
45.3

$$$$

* * *

- System: MCF10A
- assay-procedure: percent viability (nuclei count relative to siNT); higher = more viable cells
- experimental-setup: 20 nM; 72 h
Mark 1.0 for percent viability under 50%, 0.0 if at or over.

>  <entry-sequence>
AUCCGCGCUCUGACUCUCUGCC [hsa-miR-937-3p]

>  <assigned-label>
0.0

$$$$
>  <entry-sequence>
CAGCCCCACAGCCUCAGA [hsa-miR-4323]

>  <assigned-label>
1.0

$$$$
>  <entry-sequence>
AAGCCUCUGUCCCCACCCCAG [hsa-miR-6819-3p]

>  <assigned-label>
0.0

$$$$
>  <entry-sequence>
CCAAGGAAGGAGGCUGGACAUC [hsa-miR-6830-5p]

>  <assigned-label>
1.0

$$$$
>  <entry-sequence>
CAAUGGCACAAACUCAUUCUUGA [hsa-miR-5197-5p]

>  <assigned-label>
1.0

$$$$
